tested on: MS2 coat protein; test: apparent KD of MS2 coat protein, switch OFF state (with FMN for OFF switches, without FMN for ON switches); designed switch direction (-1 OFF switch, 1 ON switch): -1; higher = weaker reporter binding; conditions: FMN input: 0 or 200 uM; Eterna round: R93 (includes R88 designs)
measure: apparent KD of MS2 coat protein
Reply with the number, then its unit.

Worked examples, 2 sequences total:
item_sequence="UAUACGUGAGGAUAUGCGAAUACCACGUUAGACAUAUAGACGCAGAAGGCACAUGAGGAUCACCCAUGUGAACC [JR_Exc004_Sub315]" target="MS2 coat protein" value="16.4 nM"
item_sequence="AAUAAACAUGAGGAUCACCCAUGUGAGGAUAUGGUAUUAUUAGGACAGUAAUGAUAUACCAGAAGGCACAAAUA [JR_Exc001_Sub1104]" target="MS2 coat protein" value="53.5 nM"

# evaluate next
## Task Fill in the blank: the reported apparent KD of MS2 coat protein of AAAAAGUGAGGAUAUGUCAAAGGUCACGAAAGUGACAAAGGACAGAAGGCACAUGAGGAUCACCCAUGUGGAAA [Fiskers Exclusion 4D1 65% - Early + late G segment 3] is ____.
## Result 27.6 nM

====

test system: MS2 coat protein; experiment: apparent KD of MS2 coat protein; designed switch direction (-1 OFF switch, 1 ON switch): -1; higher = weaker reporter binding; details: Eterna round: R95; input ligand: microRNA oligo, concentration not stated
measure: apparent KD of MS2 coat protein (nM)
Give your result in nM as a bare value.

## Task Request the reported apparent KD of MS2 coat protein associated with GGUCUGCGAGGAUAUACAUGAGGAUCACCCAUGUGCGUGAUACUAGUGAGGUCGGUUGGUAGAAGGCGCGGACG [JL-ex3-2.08 salish99 mod] (puzzle: Exclusion 3)
## Result 245

## Task May I ask what apparent KD of MS2 coat protein has been recorded for AAUCCACAUGAGGAUCACCCAUGUCAGGAUAUCGCGCGCGCGUUUUCGGUCUCGCGCGCGAGAAGGGACGGCUG (puzzle: Exclusion 1) ?
## Result 22

====

test system: MS2 coat protein; experiment: apparent KD of MS2 coat protein; higher = weaker reporter binding; conditions: Eterna round: R107; input ligand: none
measure: apparent KD of MS2 coat protein (nM)
Enter your answer as a number in nM; do not include the unit.

Answered cases to consult:
item_sequence="CUCUCAUGAACAUGAGGAUCACCCAUGUAACGAGGACCGGUACGGCCGCCACUCGAACGUGGAAACCAAUCGAGUGAGGUGGGAG [Tryp A Ex t5b]" measure="apparent KD of MS2 coat protein" value=116
item_sequence="UGAUAUGUGGGAAGGAGCGCAUACUUCACAUGAGGAUCACCCAUGUCAAGACGUGAGUCAGUGCAGGUAGGUCGCCUAGUUAUGA [Same State - Arginine B (Freestyle 19)]" measure="apparent KD of MS2 coat protein" value=124
item_sequence="ACGAUAGGGCAUGAGGAUCACCCAUGUGAUACCAGCCUGGAAACAGGCCCUUGGCAGCAUUAAUACUCCAAUAACCUAUCGAAUA [TheoAX 17 #MicroSwitchBubble #AlternativeMS2]" measure="apparent KD of MS2 coat protein" value=129
item_sequence="AGUCUUAAUGGAAGGAGCGCAGUCAUAACAUGAGGAUCACCCAUGUCGAGGUGAGGGUCAUUGCAGGUAGGUCGCCAUACUAAGA [Same State - Arginine B (Freestyle 3)]" measure="apparent KD of MS2 coat protein" value=199
item_sequence="AAAGUUGAUGAGUUGUGUUUGUGUUCGGAAGGAGCGGGAAUUAUCUCAGGUAGGUCGCCGAACAUGAGGAUCACCCAUGUAUAAA [XArg-A 18 NuV2 original #dotplot2>1]" measure="apparent KD of MS2 coat protein" value=98.7
item_sequence="AAUAAUAAGGCGGCCGCCACUAAACAUGAGGAUCACCCAUGUCUCGAGCGCAUACAUAAGGGAUGUAGGACCGGGCCAAUAAUAA [Exclusion - Tryptophan B (Freestyle 1)]" measure="apparent KD of MS2 coat protein" value=23.5
item_sequence="CCGGGCCCGGGAGACCGGGCCCGGACUGAAGGAGCGGGAAUAAACCCAGGUAGGUCGCAGAGAUCCACAUGAGGAUCACCCAUGU [!0.U]" measure="apparent KD of MS2 coat protein" value=54.5
item_sequence="GAUUGGAUUUGAAGGAGCGUCGAAAAUGGGUAAACAUGAGGAUCACCCAUGUAAAGGGAACGACAGGUAGGUCGCAAAUUUAAUC [AstromonsSSArgB#31]" measure="apparent KD of MS2 coat protein" value=111

## Task // lookup apparent KD of MS2 coat protein for ACAUGAGGAUCACCCAUGUAAUAAUCAGAAGGAGCGUGGAAUAACACAGGUAGGUCGCUGAUGUUUGGUUAAAAUUAUUCGUGAA [JR_ExcArginiA_Sub001]
## Result 13.1

## Task Which apparent KD of MS2 coat protein reading was recorded for the sequence GUACAUGAGGAUCACCCAUGUAUAGUUGAAGGAGCGACCGGAGGGUCAGGUAGGUCGCAGCACAUGGCGUAAACCCGUGUAUGCC [#1 Exclusion - Arginine A Attempt #24 (Inspired by Pi)] ?
## Result 21.7

## Task Consider the sequence GGGUACAUCGCGGCCGCCACUCAUGUAAAUGCAUGAGGAUCACCCAUGCCGAUGGAGACAUCGGAGAGGACCGGGUGAUGUACCG and give its measured apparent KD of MS2 coat protein.
## Result 45.8
